Molecular target: T1, P6A-bH
T1 chain: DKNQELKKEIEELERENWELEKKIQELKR
Test: two-hybrid library CCNG1;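 also: natural log of median RNA to DNA barcode read ratio; higher means stronger binding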
Doc: threshold -0.6 (exclusive). Items with interaction score beneath it return satisfied; others return not satisfied.

1. DKIQELKKKIEELKRENWELEKENQELER [P4A-bH]
satisfied
2. DKNQELKKENEELERKIWELKKKIQELKR [P10A-bH]
not satisfied
3. DENQELEKKIEELKRKNWELKKEIQELER [P5A-bH]
not satisfied
4. DEIQELEKEIEELERKNWELKKKNQELKR [P3A-bH]
not satisfied
5. DENQELEKEIEELEREIWELEKKNQELKR [P11A-bH]
not satisfied
6. DKIQELKKKNEELKRKNWELKKKIQELKR [P2A-bH]
satisfied
7. DKNQELKKKIEELKRKIWELKKENQELER [P12A-bH]
not satisfied

Values compiled from paper PMC10397247.
